- target or test system: T1, full-length human PD-L1 on K562 cells (human, UniProt Q9NZQ7 19-290)
- T1 construct: also called PD-L1/K562; cell surface human PD-L1
- T1 sequence (Q9NZQ7 19-290 limits assumed): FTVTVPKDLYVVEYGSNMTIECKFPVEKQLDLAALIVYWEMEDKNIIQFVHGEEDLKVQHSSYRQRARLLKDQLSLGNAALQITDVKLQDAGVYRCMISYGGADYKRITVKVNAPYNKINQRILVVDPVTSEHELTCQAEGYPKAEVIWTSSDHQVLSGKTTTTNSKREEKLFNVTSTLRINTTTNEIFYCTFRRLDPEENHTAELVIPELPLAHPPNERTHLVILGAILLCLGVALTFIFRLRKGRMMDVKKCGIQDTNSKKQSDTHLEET
- method description: FACS, PD-L1/K562 cells
EC50 for assorted binders
Enter your answer as a number in nM; do not include the unit.

Some binders with recorded EC50:
>>> reported_result("2019EP69-F02 scFv (scFv, V domains shown) VH: QVQLVQSGAEVKKPGSSVKVSCKASGGTFSSYAISWVRQAPGQGLEWMGGIIPIFGTANYAQKFQGRVTITADESTSTAYMELSSLRSEDTAVYYCARDKWYGSGWRGDYWGQGTLVTVSS VL: QSVLTQPPSASGTPGQRVTISCSGSYSNIGSNFVNWYQQLPGTAPKLLIHFNNQRPSGVPDRFSGSRSGTSASLAISGLQSEDEADYFCSTWDDSLKGPIFGGGTKLTVL")
2
>>> reported_result("2019EP69-C05 scFv (scFv, V domains shown) VH: QVQLVQSGAEVKKPGSSVKVSCKASGGTFSSYAISWVRQAPGQGLEWMGGIIPIFGTANYAQKFQGRVTITADESTSTAYMELSSLRSEDTAVYYCARDKGYGSGFRGDYWGQGTLVTVSS VL: QSVLTQPPSASGTPGQRVTISCSGSYSNIGSNFVNWYQQLPGTAPKLLIHFNNQRPSGVPDRFSGSRSGTSASLAISGLQSEDEADYFCSTWDDSLKGPIFGGGTKLTVL")
0.221
>>> reported_result("2019EP69-F03 scFv (scFv, not shown: small tags and cut ends) scFv: QVQLVQSGAEVKKPGSSVKVSCKASGGTFSSYAISWVRQAPGQGLEWMGGIIPIFGTANYAQKFQGRVTITADESTSTAYMELSSLRSEDTAVYYCARDKWYGSAWRGDYWGQGTLVTVSSGGGGSGGGGSGGGGSQSVLTQPPSASGTPGQRVTISCSGSYSNIGSNFVNWYQQLPGTAPKLLIHFNNQRPSGVPDRFSGSRSGTSASLAISGLQSEDEADYFCSTWDDSLKGPIFGGGTKLTVL")
0.115
>>> reported_result("2019EP69-H10 scFv (scFv, V domains shown) VH: QVQLVQSGAEVKKPGSSVKVSCKASGGTFSSYAISWVRQAPGQGLEWMGGIIPIFGTANYAQKFQGRVTITADESTSTAYMELSSLRSEDTAVYYCARDKWFGSGWRGDYWGQGTLVTVSS VL: QSVLTQPPSASGTPGQRVTISCSGSYSNIGSNFVNWYQQLPGTAPKLLIHFNNQRPSGVPDRFSGSRSGTSASLAISGLQSEDEADYFCSTWDDSLKGPIFGGGTKLTVL")
0.0799
>>> reported_result("2019EP69-E10 scFv (scFv, V domains shown) VH: QVQLVQSGAEVKKPGSSVKVSCKASGGTFSSYAISWVRQAPGQGLEWMGGIIPIFGTANYAQKFQGRVTITADESTSTAYMELSSLRSEDTAVYYCARDKGFGSGWRGDYWGQGTLVTVSS VL: QSVLTQPPSASGTPGQRVTISCSGSYSNIGSNFVNWYQQLPGTAPKLLIHFNNQRPSGVPDRFSGSRSGTSASLAISGLQSEDEADYFCSTWDDSLKGPIFGGGTKLTVL")
0.207

[in] GET /values?readout=EC50&item= 2018EP171-H02 scFv (scFv, V domains shown) VH: QVQLVQSGAEVKKPGSSVKVSCKASGGTFSSYAISWVRQAPGQGLEWMGGIIPIFGTANYAQKFQGRVTITADESTSTAYMELSSLRSEDTAVYYCARDKGYGSGWRGDYWGQGTLVTVSS VL: QSVLTQPPSASGTPGQRVTISCSGSYSNIGSNFVNWYQQLPGTAPKLLIHFNNQRPSGVPDRFSGSRSGTSASLAISGLQSEDEADYFCSTWDDSLKGPIFGGGTKLTVL
[out] 0.25
